biological target: Akt1 (Homo sapiens); construct: made in house; host or cells: Sf9 insect cells (baculovirus, pBlueBacHis2B); experiment: Akt1 kinase assay (33P phosphorylation of biotinylated peptide, Flash plates); type: biochemical; conditions: read-out: IC50 rating (AKT1 inhibition)
pIC50: −log10 of the molar value.
assay-endpoint: pIC50

compound: c1ccc(-c2n[nH]c3ccc(-c4nncc(N5CCNCC5)n4)cc23)cc1
pIC50: 6.00 to 7.00

Would you kindly look at the next entry?
What value of measured pIC50 is listed for Cc1n[nH]c2ccc(-c3nnc(Cl)c(N4CCN[C@@H](Cc5ccccc5)C4)n3)cc12 ? > 7.00

====

Listed here: items and their measured pIC50.
molecular target: Akt1 (Homo sapiens, UniProt P31749); construct: made in house; host or cells: Sf9 insect cells (baculovirus, pBlueBacHis2B); assay: Akt1 kinase assay (33P phosphorylation of biotinylated peptide, Flash plates); format: biochemical; details: read-out: IC50 rating (AKT1 inhibition)
Sequence (P31749 whole entry): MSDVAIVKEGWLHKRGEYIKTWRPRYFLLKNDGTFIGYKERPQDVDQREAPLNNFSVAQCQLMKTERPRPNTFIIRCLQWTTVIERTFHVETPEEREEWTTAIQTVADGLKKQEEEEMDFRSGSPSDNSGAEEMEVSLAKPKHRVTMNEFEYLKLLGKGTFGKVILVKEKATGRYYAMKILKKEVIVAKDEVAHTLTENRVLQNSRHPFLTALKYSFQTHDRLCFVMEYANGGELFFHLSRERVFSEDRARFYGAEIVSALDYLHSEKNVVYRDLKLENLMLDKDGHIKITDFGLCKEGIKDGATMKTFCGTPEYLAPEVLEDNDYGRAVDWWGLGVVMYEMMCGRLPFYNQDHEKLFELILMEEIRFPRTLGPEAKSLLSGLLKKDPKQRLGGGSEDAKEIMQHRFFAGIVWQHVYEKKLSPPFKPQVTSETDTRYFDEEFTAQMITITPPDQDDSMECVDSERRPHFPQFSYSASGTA
pIC50: −log10 of the molar value.

Some solved entries appear below for comparison.
molecule: Cc1n[nH]c2ccc(-c3nnc(Cl)c(N4CCN[C@@H](C(C)C)C4)n3)cc12 [Compound 20]
pIC50: > 7.00

molecule: Cc1n[nH]c2ccc(-c3nnc(N)c(N4CCN[C@H](C)C4)n3)cc12 [Compound 9]
pIC50: < 6.00

molecule: Nc1n[nH]c2ccc(-c3nncc(N4CCN[C@@H](Cc5ccccc5)C4)n3)cc12 [Compound 67]
pIC50: < 6.00

What value of measured pIC50 is listed for Cc1n[nH]c2ccc(-c3nnc(Cl)c(N4CCN[C@H](c5ccccc5)C4)n3)cc12 [Compound 43] ? 6.00 to 7.00

What value of measured pIC50 is listed for Cc1n[nH]c2ccc(-c3nnc(CCc4ccccc4)c(N4CCN[C@@H](C(C)C)C4)n3)cc12 [Compound 93] ? > 7.00
